experiment: Activators working through SNCA 5'UTR binding (MLPCN) (AID 1814); details: alpha-synuclein 5'UTR reporter, activators screen; stronger effect = lower value; tested at 7.5 µM
Hit rate of the full screen: of about 300,000 compounds, about 22,000 (7.3%) were called active. Another 2% or so got no clear call; they are omitted. This excerpt belongs to a sample that is enriched for actives.
MEASURED PROPERTY: activity score (%)
Numbers only; they are read as %.

Completed entries (count: 3):
CCCCCCCCCCCCn1ccc(=N)cc1: 104
C/C(=N/O)c1ccc2ccc3ccccc3c2c1: -104
CCCCCn1c(=O)c(C(=O)Nc2c(C)n(C)n(-c3ccccc3)c2=O)c(O)c2ccccc21: -108

// next item, activity score requested
Record summary for `CCOc1ccc(-c2cc(C)[n+](CCN(CC)CC)c(-c3ccc(OCC)cc3)c2)cc1` : reported activity score = 95.2
